These entries and their values trace back to patent US20190225652A1.

Each entry below carries its reported Cyclic product (%).
test system: rOaAEP1b; assay: Cyclization assay with rOaAEP1b (MALDI MS); format: biochemical, Oldenlandia affinis; conditions: rOaAEP1b 12 μg mL^−1 total protein, 22 hours; peak area as percentage of total peak area of that peptide; average of three experiments
Sequence (as listed by the source): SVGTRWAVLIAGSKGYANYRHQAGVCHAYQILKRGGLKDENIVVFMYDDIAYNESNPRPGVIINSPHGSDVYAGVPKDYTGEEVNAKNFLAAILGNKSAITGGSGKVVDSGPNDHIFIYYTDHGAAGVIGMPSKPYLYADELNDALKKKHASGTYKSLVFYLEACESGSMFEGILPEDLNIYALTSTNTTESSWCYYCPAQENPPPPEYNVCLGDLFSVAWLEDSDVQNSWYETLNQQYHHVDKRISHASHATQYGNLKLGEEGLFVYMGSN
Quick note: unit goes after the number.

Would you please look over these solved cases?
>>> experimental_result("KLVFAEFLPLFSKFGSRMHILKNGL (rOaAEP1b-mediated processing) [SEQ ID NO: 31, R1 peptide derivative]")
"82.2%"
>>> experimental_result("GLVFAEFLPLFSKFGSRMHILKNGL (rOaAEP1b-mediated processing) [SEQ ID NO: 27, R1 peptide derivative]")
"92.9%"
>>> experimental_result("QLVFAEFLPLFSKFGSRMHILKNGL (rOaAEP1b-mediated processing) [SEQ ID NO: 30, R1 peptide derivative]")
"93.1%"

[ask] Given the entry VFAEFLPLFSKFGSRMHILKNGL (rOaAEP1b-mediated processing) [SEQ ID NO: 29, R1 peptide derivative] , report its measured Cyclic product (%).
[reply] 49.6%

[ask] Given the entry GLPVFAEFLPLFSKFGSRMHILKSTRNGLP (rOaAEP1b-mediated processing) [SEQ ID NO: 26, R1 peptide derivative] , report its measured Cyclic product (%).
[reply] 78.8%

----------
tested on: rOaAEP1b; experiment: Cyclization assay with rOaAEP1b (MALDI MS); format: biochemical, Oldenlandia affinis; conditions: rOaAEP1b 12 μg mL^−1 total protein, 22 hours; peak area as percentage of total peak area of that peptide; average of three experiments
Please assign No whenever Linear precursor (%) is at or above 20%, and Yes whenever it is below.

Below, 5 sequences whose answers are already recorded.
>>> classification("QLVFAEFLPLFSKFGSRMHILKNGL (rOaAEP1b-mediated processing) [SEQ ID NO: 30, R1 peptide derivative]")
"Yes"
>>> classification("GLVFAEFLPLFSKFGSRMHILKNG (rOaAEP1b-mediated processing) [SEQ ID NO: 28, R1 peptide derivative]")
"No"
>>> classification("GLPVFAEFLPLFSKFGSRMHILKSTRNGLP (rOaAEP1b-mediated processing) [SEQ ID NO: 26, R1 peptide derivative]")
"No"
>>> classification("VFAEFLPLFSKFGSRMHILKNGL (rOaAEP1b-mediated processing) [SEQ ID NO: 29, R1 peptide derivative]")
"No"
>>> classification("KLVFAEFLPLFSKFGSRMHILKNGL (rOaAEP1b-mediated processing) [SEQ ID NO: 31, R1 peptide derivative]")
"Yes"

Proceed to the following item.
[ask] In the record for GLVFAEFLPLFSKFGSRMHILKNGL (rOaAEP1b-mediated processing) [SEQ ID NO: 27, R1 peptide derivative] , is Linear precursor (%) less than 20%?
[reply] Yes
